Biological target: MMP-2 (Homo sapiens, UniProt P08253)
Construct: purchased Calbiochem
Sequence (P08253 110-660, species assumed): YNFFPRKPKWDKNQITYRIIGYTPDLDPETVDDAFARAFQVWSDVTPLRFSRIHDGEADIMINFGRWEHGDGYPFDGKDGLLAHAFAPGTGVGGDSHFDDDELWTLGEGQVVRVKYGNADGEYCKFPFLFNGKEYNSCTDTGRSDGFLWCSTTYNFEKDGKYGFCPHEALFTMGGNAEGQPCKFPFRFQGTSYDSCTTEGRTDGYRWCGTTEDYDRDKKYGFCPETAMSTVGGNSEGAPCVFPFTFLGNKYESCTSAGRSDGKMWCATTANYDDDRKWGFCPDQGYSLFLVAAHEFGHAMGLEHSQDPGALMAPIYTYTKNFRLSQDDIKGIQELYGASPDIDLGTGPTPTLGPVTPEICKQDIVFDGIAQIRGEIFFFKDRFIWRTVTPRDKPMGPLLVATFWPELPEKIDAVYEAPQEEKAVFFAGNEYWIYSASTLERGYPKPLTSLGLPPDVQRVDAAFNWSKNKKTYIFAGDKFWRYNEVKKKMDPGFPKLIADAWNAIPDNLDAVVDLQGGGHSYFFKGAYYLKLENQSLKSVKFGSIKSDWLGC
Test: Cleavage of conjugates by MMP-2 in buffer (HPLC)
Format: biochemical
Conditions: after 6 h incubation with MMP-2; buffer pH 7.5
*1 amine or outer side, *2 acyl side, *3 side chain or, on linkers, in order; H or OH if unused. Where a SMILES comes first, the peptide text is derived from it. [ ]: non-standard residue; d: D form. The star is where a group is joined. Camptothecin(20R,20-O) = CC[C@]1(O*)C(=O)OCc2c1cc1n(c2=O)Cc2cc3ccccc3nc2-1; X2 = CCCNC(=O)Nc1cccc(S(=O)(=O)Nc2cccc(C(CC(=O)O)NC(=O)Nc3ccc(N*)cc3)c2)c1; CO = O=C([*:1])[*:2]
Known MMP-2 mediated cleavage Peak area product/educt x100 of a selection of compounds
Observable: MMP-2 mediated cleavage Peak area product/educt x100

[
  {
    "Compound": "CCCNC(=O)Nc1cccc(S(=O)(=O)Nc2cccc(C(CC(=O)O)NC(=O)Nc3ccc(NC(=S)N4CCC[C@@H]4C(=O)N[C@@H](CC(C)C)C(=O)NCC(=O)N[C@H](CC(C)C)C(=O)N[C@H](Cc4c[nH]cn4)C(=O)N[C@@H](C(=O)O[C@@]4(CC)C(=O)OCc5c4cc4n(c5=O)Cc5cc6ccccc6nc5-4)C(C)C)cc3)c2)c1 (single isomer, unassigned) [Example 2]",
    "Result": 18
  },
  {
    "Compound": "CCCNC(=O)Nc1cccc(S(=O)(=O)Nc2cccc(C(CC(=O)O)NC(=O)Nc3ccc(NC(=O)N4CCC[C@@H]4C(=O)N[C@@H](CC(C)C)C(=O)NCC(=O)N[C@H](CC(C)C)C(=O)N[C@H](Cc4c[nH]cn4)C(=O)N[C@@H](C(=O)O[C@@]4(CC)C(=O)OCc5c4cc4n(c5=O)Cc5cc6ccccc6nc5-4)C(C)C)cc3)c2)c1 (stereo partly drawn) [Example 6] ({X2-CO}-[dP]LG[dL][dH][dV]-{Camptothecin(20R,20-O)})",
    "Result": 33
  }
]

----------
Tested on: SW 480
Experiment: Growth inhibition test (MTT), cytotoxic action on tumour cell lines
Type: cell-based, human
Details: human, 6 days
Known IC50 of a selection of compounds

[
  {
    "Compound": "CCCNC(=O)Nc1cccc(S(=O)(=O)Nc2cccc(C(CC(=O)O)NC(=O)Nc3ccc(NC(=S)N4CCC[C@@H]4C(=O)N[C@@H](CC(C)C)C(=O)NCC(=O)N[C@H](CC(C)C)C(=O)N[C@H](Cc4c[nH]cn4)C(=O)N[C@@H](C(=O)O[C@@]4(CC)C(=O)OCc5c4cc4n(c5=O)Cc5cc6ccccc6nc5-4)C(C)C)cc3)c2)c1 (single isomer, unassigned) [Example 2]",
    "Target system": "SW 480",
    "IC50 / nM": 100
  },
  {
    "Compound": "CCCNC(=O)Nc1cccc(S(=O)(=O)Nc2cccc(C(CC(=O)O)NC(=O)Nc3ccc(NC(=S)N4CCC[C@@H]4C(=O)N[C@@H](CC(C)C)C(=O)NCC(=O)N[C@H](CSC)C(=O)N[C@H](Cc4c[nH]cn4)C(=O)N[C@@H](C(=O)O[C@@]4(CC)C(=O)OCc5c4cc4n(c5=O)Cc5cc6ccccc6nc5-4)C(C)C)cc3)c2)c1 (some centres unmarked) [Example 19]",
    "Target system": "SW 480",
    "IC50 / nM": 60
  },
  {
    "Compound": "CCCNC(=O)Nc1cccc(S(=O)(=O)Nc2cccc(C(CC(=O)O)NC(=O)Nc3ccc(NC(=S)N4CCC[C@@H]4C(=O)N[C@@H](CC(C)C)C(=O)NCC(=O)N[C@H](CC(C)C)C(=O)N[C@H](Cc4c[nH]cn4)C(=O)N[C@@H](C(=O)O[C@@]4(CC)C(=O)OCc5c4cc4n(c5=O)Cc5cc6ccccc6nc5-4)C(C)C)cc3)c2)c1 (some centres unmarked) [Example 1]",
    "Target system": "SW 480",
    "IC50 / nM": 70
  },
  {
    "Compound": "CCCNC(=O)Nc1cccc(S(=O)(=O)Nc2cccc(C(CC(=O)O)NC(=O)Nc3ccc(NC(=S)N4CCC[C@@H]4C(=O)N[C@@H](CC(C)C)C(=O)NCC(=O)N[C@H](CSC)C(=O)N[C@H](Cc4c[nH]cn4)C(=O)N[C@@H](C(=O)O[C@@]4(CC)C(=O)OCc5c4cc4n(c5=O)Cc5cc6ccccc6nc5-4)C(C)C)cc3)c2)c1 (single isomer, unassigned) [Example 25]",
    "Target system": "SW 480",
    "IC50 / nM": 60
  },
  {
    "Compound": "CCCNC(=O)Nc1cccc(S(=O)(=O)Nc2cccc(C(CC(=O)O)NC(=O)Nc3ccc(NC(=S)N4CCC[C@@H]4C(=O)N[C@@H](CC(C)C)C(=O)NCC(=O)N[C@H](CC(C)C)C(=O)N[C@H](CC(N)=O)C(=O)N[C@@H](C(=O)O[C@@]4(CC)C(=O)OCc5c4cc4n(c5=O)Cc5cc6ccccc6nc5-4)C(C)C)cc3)c2)c1 (single isomer, unassigned) [Example 10]",
    "Target system": "SW 480",
    "IC50 / nM": 70
  }
]

----------
System: SW 480
Test: Growth inhibition test (MTT), cytotoxic action on tumour cell lines
Assay type: cell-based, human
Details: human, 6 day

[
  {
    "Compound": "CCCNC(=O)Nc1cccc(S(=O)(=O)Nc2cccc(C(CC(=O)O)NC(=O)Nc3ccc(NC(=S)N4CCC[C@H]4C(=O)N[C@@H](CC(C)C)C(=O)NCC(=O)N[C@@H](CC(C)C)C(=O)N[C@@H](CCC(=O)O)C(=O)N[C@H](C(=O)O[C@]4(CC)C(=O)OCc5c4cc4n(c5=O)Cc5cc6ccccc6nc5-4)C(C)C)cc3)c2)c1 (stereo partly shown) [Example 36]",
    "IC50, µM": 0.15
  }
]

----------
System: HT29
Experiment: Growth inhibition test (MTT), cytotoxic action on tumour cell lines
Assay type: cell-based, human
Conditions: HT29; MTT after day 6; read-out: IC50 values of the cytotoxic action on tumour cell lines, HT29
pIC50: −log10 of the molar value.
Values of pIC50 greater than or equal to 7 map to T; values below map to F.

[
  {
    "Compound": "CCCNC(=O)Nc1cccc(S(=O)(=O)Nc2cccc(C(CC(=O)O)NC(=O)Nc3ccc(NC(=S)N4CCC[C@@H]4C(=O)N[C@@H](CC(C)C)C(=O)NCC(=O)N[C@H](CCC)C(=O)N[C@H](CC(N)=O)C(=O)N[C@@H](C(=O)O[C@@]4(CC)C(=O)OCc5c4cc4n(c5=O)Cc5cc6ccccc6nc5-4)C(C)C)cc3)c2)c1 (single isomer, unassigned)",
    "Label value": "T"
  },
  {
    "Compound": "CCCNC(=O)Nc1cccc(S(=O)(=O)Nc2cccc(C(CC(=O)O)NC(=O)Nc3ccc(NC(=S)N4CCC[C@H]4C(=O)N[C@@H](CC(C)C)C(=O)NCC(=O)N[C@@H](CC(C)C)C(=O)N[C@@H](C)C(=O)N[C@H](C(=O)O[C@]4(CC)C(=O)OCc5c4cc4n(c5=O)Cc5cc6ccccc6nc5-4)C(C)C)cc3)c2)c1 (stereo partly drawn)",
    "Label value": "F"
  },
  {
    "Compound": "CCCCNC(=O)Nc1cccc(S(=O)(=O)Nc2cccc(C(CC(=O)O)NC(=O)Nc3ccc(NC(=S)NCC(=O)N4CCC[C@@H]4C(=O)N[C@@H](CC(C)C)C(=O)NCC(=O)N[C@H](CC(C)C)C(=O)N[C@H](CC(N)=O)C(=O)N[C@@H](C(=O)O[C@@]4(CC)C(=O)OCc5c4cc4n(c5=O)Cc5cc6ccccc6nc5-4)C(C)C)cc3)c2)c1 (single isomer, unassigned)",
    "Label value": "T"
  },
  {
    "Compound": "CCCNC(=O)Nc1cccc(S(=O)(=O)Nc2cccc(C(CC(=O)O)NC(=O)Nc3ccc(NC(=S)N4CCC[C@H]4C(=O)N[C@@H](CC(C)C)C(=O)NCC(=O)N[C@@H](CC(C)C)C(=O)N[C@@H](CO)C(=O)N[C@H](C(=O)O[C@]4(CC)C(=O)OCc5c4cc4n(c5=O)Cc5cc6ccccc6nc5-4)C(C)C)cc3)c2)c1 (stereo partly drawn)",
    "Label value": "T"
  },
  {
    "Compound": "CCCNC(=O)Nc1cccc(S(=O)(=O)Nc2cccc(C(CC(=O)O)NC(=O)Nc3ccc(NC(=S)N4CCC[C@@H]4C(=O)N4CCC[C@@H]4C(=O)N[C@@H](CC(C)C)C(=O)NCC(=O)N[C@H](CC(C)C)C(=O)N[C@H](CC(N)=O)C(=O)N[C@@H](C(=O)O[C@@]4(CC)C(=O)OCc5c4cc4n(c5=O)Cc5cc6ccccc6nc5-4)C(C)C)cc3)c2)c1 (single isomer, unassigned)",
    "Label value": "T"
  },
  {
    "Compound": "CCCNC(=O)Nc1cccc(S(=O)(=O)Nc2cccc(C(CC(=O)O)NC(=O)Nc3ccc(NC(=S)N4CCC[C@H]4C(=O)N[C@@H](CC(C)C)C(=O)NCC(=O)N[C@@H](CC(C)C)C(=O)NCC(=O)N[C@H](C(=O)O[C@]4(CC)C(=O)OCc5c4cc4n(c5=O)Cc5cc6ccccc6nc5-4)C(C)C)cc3)c2)c1 (stereo partly drawn)",
    "Label value": "F"
  }
]

Measured values drawn from patent US20020183256A1 for this set.
